# test_method_notes: BSK_CASM3C_Proliferation: Cell Proliferation Assessment in the BioMAP Diversity Plus: CASM3C Assay (AID 2283047);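 further: sulforhodamine B total protein stain as relative cell number at 560 nm; sub-confluent cells exposed 48 h before staining; fitted both ways against DMSO so gain or loss of cell number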
# condition_summary: primary human coronary artery smooth muscle cells
The source made the active and inactive calls. How the source made its calls: active means hit-call score of the fitted dose curve at least 0.9, where 1 is the maximum; inactive means score below 0.9.
The categories you may choose from are t for active, f for inactive

Please review the following examples before continuing.
- smiles_entry: "CO[Si](OC)(c1ccccc1)c1ccccc1"
  category: "t"
- smiles_entry: "Cc1ccc(S(=O)(=O)OCC(F)(F)C(F)(F)C(F)(F)C(F)(F)C(F)(F)C(F)F)cc1"
  category: "f"
- smiles_entry: "CCc1ccc(C(c2ccc(CC)cc2)C(Cl)Cl)cc1"
  category: "f"

In: Field: outcome | Entry: OCC(F)(F)C(F)(F)C(F)(F)F
Out: f

In: # repeat for FC(F)(F)C(F)(F)C(F)(F)C(F)(F)CCI
Out: f

In: Same lookup for C=CC(F)(F)C(F)(F)C(F)(F)C(F)(F)C(F)(F)C(F)(F)C(F)(F)C(F)(F)C=C , please.
Out: f

In: FC(F)(F)C(F)(F)C(F)(F)N(C(F)(F)C(F)(F)C(F)(F)F)C(F)(F)C(F)(F)C(F)(F)F , same question.
Out: f

In: Note, next up: FC(F)(F)C(F)(F)C(F)(F)CI
Out: f

###

# test_method_notes: BSK_BT_PBMCCytotoxicity: PBMC Cytotoxicity Assessment in the BioMAP Diversity Plus: BT Assay (AID 2284225);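 further: PBMC viability measured by Alamar Blue dye reduction fluorescence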
# condition_summary: primary human B cells with PBMC
Activity calls are given as the source filed them. Rule for the calls: active = hit-call score of the fitted dose curve at least 0.9, where 1 is the maximum; inactive = score below 0.9.
A correct response names exactly one class from active, inactive

- smiles_entry: "O=C(O)C(F)(F)C(F)(F)F"
  category: "inactive"
- smiles_entry: "FC(F)(F)C(F)(F)C(F)(F)N(C(F)(F)C(F)(F)C(F)(F)F)C(F)(F)C(F)(F)C(F)(F)F"
  category: "inactive"
- smiles_entry: "O=C(CC(=O)C(F)(F)C(F)(F)F)C(F)(F)F"
  category: "inactive"
- smiles_entry: "FC(F)(F)C(F)(F)C(F)(F)C(F)(F)C(F)(F)C(F)(F)C(F)(F)C(F)(F)F"
  category: "inactive"
- smiles_entry: "Oc1ccc(Nc2ccccc2)cc1"
  category: "active"

In: Lab log entry: O[Si](c1ccccc1)(c1ccccc1)c1ccccc1 — outcome as called in the assay?
Out: inactive

In: Query CCCCCCCCC(F)(F)C(F)(F)C(F)(F)C(F)(F)C(F)(F)C(F)(F)F next
Out: inactive

In: Then this molecule: FC(F)(F)C(F)(F)C(F)(F)C(F)(F)C(F)(F)C(F)(F)C(F)(F)Br
Out: inactive

###

# assay_target: Bile acid receptor (Homo sapiens) (UniProt Q96RI1)
# Sequence (Q96RI1 whole entry, looked up): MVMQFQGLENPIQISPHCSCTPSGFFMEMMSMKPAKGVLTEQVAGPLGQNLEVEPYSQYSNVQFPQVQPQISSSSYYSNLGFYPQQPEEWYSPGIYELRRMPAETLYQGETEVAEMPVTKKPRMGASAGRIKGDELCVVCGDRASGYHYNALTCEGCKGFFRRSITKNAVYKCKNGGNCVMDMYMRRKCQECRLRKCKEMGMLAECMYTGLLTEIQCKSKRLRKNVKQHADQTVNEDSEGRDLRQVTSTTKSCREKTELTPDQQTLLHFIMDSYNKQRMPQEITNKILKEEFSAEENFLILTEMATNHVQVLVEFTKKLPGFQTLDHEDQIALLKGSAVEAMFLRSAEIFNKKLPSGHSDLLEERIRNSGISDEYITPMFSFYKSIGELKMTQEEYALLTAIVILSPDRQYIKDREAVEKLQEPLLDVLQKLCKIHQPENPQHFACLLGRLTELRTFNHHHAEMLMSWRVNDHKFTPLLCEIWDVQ
# test_method_notes: OT_FXR_FXRSRC1_0480: Odyssey Thera (OT) 8-hour HEK293T Protein-Complementation Assay for Farnesoid X receptor/SRC-1 Co-activator (AID 2283383)
Inconclusive results are not listed. Calls of active or inactive are those of the source. The calls were made as follows: active = hit-call score of the fitted dose curve at least 0.9, where 1 is the maximum; inconclusive = response in the unintended direction; inactive = score below 0.9.
Hi! Could you answer with just one of these? T for active, F for inactive

The following compounds have reported results that may help.
- compound: "CCCCOc1ccc(N)cc1"
  category: "F"
- compound: "CCCCCCOC(=O)c1ccccc1"
  category: "F"
- compound: "C#C[C@]1(O)CC[C@H]2[C@@H]3CCc4cc(OC)ccc4[C@H]3CC[C@@]21C"
  category: "T"
- compound: "C(=C(c1ccccc1)c1ccccc1)c1ccccc1"
  category: "T"
- compound: "CC(C)OC(=O)c1ccccc1C(=O)OC(C)C"
  category: "F"

In: Field: outcome | Entry: [Co]
Out: F

In: Queued: CC(CCl)OP(=O)(OC(C)CCl)OC(C)CCl (configuration not stated)
Out: F

###

# Read-out: Monocyte Chemoattractant Protein-1 (MCP1), CCL2 (gene 6347)
# test_method_notes: BSK_4H_MCP1: BioMAP Diversity Plus: 4H Assay for Monocyte Chemoattractant Protein-1 (MCP1) Biomarker Activity (AID 2283018)
# condition_summary: primary human endothelial cells (HUVEC); actives raise or lower the signal
The source made the active and inactive calls. Rule for the calls: active = hit-call score of the fitted dose curve at least 0.9, where 1 is the maximum; inactive = score below 0.9.
Hi! Could you answer with just one of these? active, inactive

Some entries whose results are on file:
- compound: "Nc1ccc([N+](=O)[O-])cc1O"
  category: "inactive"
- compound: "CCCCCCCCCCCCCCCC[N+](C)(C)Cc1ccccc1"
  category: "active"
- compound: "OCC(F)(F)C(F)(F)C(F)(F)F"
  category: "inactive"
- compound: "FC1CC(F)(F)C(F)(F)C1(F)F (configuration not stated)"
  category: "inactive"

In: Kindly provide the recorded test outcome for the following compound: FC(F)(F)C(F)(F)C(F)(F)C(F)(F)C(F)(F)C(F)(F)C(F)(F)I
Out: inactive

In: Now consider C=C(C)C(=O)OCC(F)(F)C(F)(F)C(F)(F)F .
Out: inactive

In: Next compound: O=C(O)C(F)(OC(F)(F)C(F)(OC(F)(F)C(F)(OC(F)(F)C(F)(F)C(F)(F)F)C(F)(F)F)C(F)(F)F)C(F)(F)F (configuration not stated)
Out: inactive

In: Do the same for O[Si](c1ccccc1)(c1ccccc1)c1ccccc1 please
Out: active

In: # iterate: O=C(CC(=O)C(F)(F)C(F)(F)F)C(F)(F)F
Out: inactive

###

# assay_target: Peroxisome proliferator-activated receptor gamma (Homo sapiens) (UniProt P37231)
# Sequence (P37231 whole entry, looked up): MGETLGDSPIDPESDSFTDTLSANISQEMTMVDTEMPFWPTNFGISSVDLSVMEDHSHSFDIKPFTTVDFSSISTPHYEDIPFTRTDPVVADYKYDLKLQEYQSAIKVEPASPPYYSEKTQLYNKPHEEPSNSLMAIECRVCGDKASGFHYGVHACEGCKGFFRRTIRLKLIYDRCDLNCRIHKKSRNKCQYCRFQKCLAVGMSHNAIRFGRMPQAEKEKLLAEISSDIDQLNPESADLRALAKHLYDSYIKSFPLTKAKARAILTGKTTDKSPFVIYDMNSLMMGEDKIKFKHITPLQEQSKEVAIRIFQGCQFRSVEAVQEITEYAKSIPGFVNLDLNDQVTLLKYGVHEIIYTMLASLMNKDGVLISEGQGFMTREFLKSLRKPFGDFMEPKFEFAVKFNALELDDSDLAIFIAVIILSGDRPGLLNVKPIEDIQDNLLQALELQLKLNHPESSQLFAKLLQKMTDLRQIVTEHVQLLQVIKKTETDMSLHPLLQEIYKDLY
# test_method_notes: OT_PPARg_PPARgSRC1_1440: Odyssey Thera (OT) 24-hour Protein-Complementation Assay for Peroxisome Proliferator-activated Receptor Gamma/ SRC-1 Co-activator (AID 2283388);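 further: nuclear to cytoplasmic ratio of reconstituted Venus YFP fluorescence in fixed imaged cells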
Activity calls are given as the source filed them. Rule for the calls: active = hit-call score of the fitted dose curve at least 0.9, where 1 is the maximum; inconclusive = response in the unintended direction; inactive = score below 0.9.
Response enum: yes for active, no for inactive

- compound: "O=C(OCCOCCOCCOC(=O)c1ccccc1)c1ccccc1"
  category: "no"

In: Returns: the outcome recorded for COC(=O)C1CCC(C(=O)OC)CC1 (configuration not stated) in this assay.
Out: no

In: Thanks! And OC[C@@H](O)[C@@H](O)[C@H](O)[C@@H](O)CO ?
Out: no

In: Input [Co]
Out: no

###

# test_method_notes: BSK_hDFCGF_Proliferation: Cell Proliferation Assessment in the BioMAP Diversity Plus: hDFCGF Assay (AID 2283059);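 further: curves fitted for both rise and fall of signal versus DMSO baseline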
# condition_summary: primary human foreskin fibroblasts
Activity calls are given as the source filed them. How the source made its calls: active means hit-call score of the fitted dose curve at least 0.9, where 1 is the maximum; inactive means score below 0.9.
Reply using exactly one outcome from Y = active, N = inactive

Example results:
- molecule: "CCc1ccc(C(c2ccc(CC)cc2)C(Cl)Cl)cc1"
  category: "Y"
- molecule: "C=C(C)C(=O)OCC(F)(F)C(F)(F)C(F)(F)F"
  category: "N"
- molecule: "O=S(=O)(OCCOC(F)(F)F)C(F)(F)F"
  category: "N"
- molecule: "COC(=O)CCC(F)(F)C(F)(F)C(F)(F)C(F)(F)F"
  category: "N"
- molecule: "OCCCC(F)(F)C(F)(F)C(F)(F)F"
  category: "N"

In: I'd appreciate the recorded outcome for CCCCCCC(C)OC(=O)CCCCC(=O)OC(C)CCCCCC (stereo not drawn) from this test.
Out: N

In: Follow-up entry: C=CC/C=C/C/C=C/C/C=C/C
Out: N

In: Proceed to O=C(O)C(F)(F)C(F)(F)C(F)(F)C(F)(F)F
Out: N

In: Let us now turn to O=C(O)C(F)(OC(F)(F)C(F)(OC(F)(F)C(F)(F)C(F)(F)F)C(F)(F)F)C(F)(F)F (stereo not drawn)
Out: N

In: Param item: O=C(O)C(F)(F)C(F)(F)C(F)(F)F
Out: N

In: Could you do the same for CCN(CC)c1ccc2c(C)cc(=O)oc2c1 , please?
Out: Y

In: Also O=C(O)C(F)(F)C(F)(F)C(F)F , if possible.
Out: N

In: And then CCCCNc1ccccc1 , what is it?
Out: N

###

# test_method_notes: TOX21_p53_BLA_p4_viability: Viability Assessment in the Tox21 HCT-116 p53 Agonism Beta-lactamase Assay, Phase 4 (AID 2283597);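 further: hits lower the luminescence signal meaning cytotoxicity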
Results filed as inconclusive are left out. The source made the active and inactive calls. The calls were made as follows: active = hit-call score of the fitted dose curve at least 0.9, where 1 is the maximum; inconclusive = response in the unintended direction; inactive = score below 0.9.
Pick one and only one: active, inactive

Example entries begin here.
- molecule: "CC(CCl)OP(=O)(OC(C)CCl)OC(C)CCl (stereo not drawn)"
  category: "inactive"
- molecule: "CNC(=S)NC"
  category: "active"
- molecule: "Nc1ccc([N+](=O)[O-])cc1O"
  category: "inactive"
- molecule: "CC(Cc1ccc(O)c(O)c1)C(C)Cc1ccc(O)c(O)c1 (stereo not drawn)"
  category: "active"
- molecule: "C#C[C@]1(O)CC[C@H]2[C@@H]3CCc4cc(OC)ccc4[C@H]3CC[C@@]21C"
  category: "inactive"
- molecule: "CCCCCCOC(=O)c1ccccc1"
  category: "inactive"
- molecule: "C1COCCN1"
  category: "inactive"
- molecule: "O=S(=O)(O)c1ccc2ccccc2c1"
  category: "inactive"
- molecule: "CCCCCCOC(=O)c1ccccc1O"
  category: "inactive"
- molecule: "COC(=O)C1CCC(C(=O)OC)CC1 (stereo not drawn)"
  category: "inactive"

In: // return assay outcome for CCCCNc1ccccc1
Out: inactive

In: Entry CC/C=C\CCOC(=O)c1ccccc1 please
Out: inactive

In: Now try Cc1ccc(S(=O)(=O)NCl)cc1 .
Out: inactive
